# System: 883617-216-R-J1-PDC tumor spheroids, viability
# method.summary: Anticancer human tumor 883617-216-R-J1-PDC patient-derived bladder carcinoma cell line growth inhibition [PI3K]
# condition.info: second compound 0.316 µM; first compound 0.3 µM; active compounds read low; spheroids with HUVEC and MSC
# Excerpt: Combinatorial screen of targeted agents with the PI3K inhibitors inavolisib, alpelisib, duvelisib, and copanlisib in multi-cell type tumor spheroids A high-throughput screen of multi-cell type tumor spheroids was designed to identify active combinations of targeted small molecules and PI3K pathway inhibitors. […] Compounds. […] If the clinical Cmax for an agent had not been determined, the highest concentration tested was 10 microM. […]
reported.endpoint: viability, T/C

Exercise: Using the record for Cn1cnc2c(F)c(Nc3ccc(Br)cc3Cl)c(C(=O)NOCCO)cc21 + Cc1nc(NC(=O)N2CCCC2C(N)=O)sc1-c1ccnc(C(C)(C)C(F)(F)F)c1 , report its viability, T/C.
Key: 20.7%

Exercise: Would you kindly repeat that for Cn1cnc2c(F)c(Nc3ccc(Br)cc3Cl)c(C(=O)NOCCO)cc21 + CC(Nc1ncnc2nc[nH]c12)c1cc2cccc(Cl)c2c(=O)n1-c1ccccc1 ?
Key: 28.4%

Exercise: Would you kindly repeat that for Cn1cnc2c(F)c(Nc3ccc(Br)cc3Cl)c(C(=O)NOCCO)cc21 + CC(Nc1ccc2c(c1)OCCn1cc(N3C(=O)OCC3C(F)F)nc1-2)C(N)=O ?
Key: 11.5%

Exercise: Would you kindly repeat that for Cn1cnc2c(F)c(Nc3ccc(Br)cc3Cl)c(C(=O)NOCCO)cc21 + COc1c(OCCCN2CCOCC2)ccc2c3n(c(=NC(=O)c4cnc(N)nc4)nc12)CCN3 ?
Key: 1.34%

* * *

# System: 883617-216-R-J1-PDC tumor spheroids, viability
# method.summary: Anticancer human tumor 883617-216-R-J1-PDC cell line growth inhibition [PI3K];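 also: spheroids exposed to agents for 7 days before the viability read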
# condition.info: second compound 3.16 µM; first compound 3.16 µM; active compounds read low; spheroids with HUVEC and MSC
# Excerpt: Combinatorial screen of targeted agents with the PI3K inhibitors inavolisib, alpelisib, duvelisib, and copanlisib in multi-cell type tumor spheroids A high-throughput screen of multi-cell type tumor spheroids was designed to identify active combinations of targeted small molecules and PI3K pathway inhibitors. […] Compounds. […] If the clinical Cmax for an agent had not been determined, the highest concentration tested was 10 microM. […]
reported.endpoint: viability, T/C (%)
# value in %; strip the unit string

Exercise: Enter reported viability, T/C observed with 883617-216-R-J1-PDC tumor spheroids, viability for C=CC(=O)N1CCN(c2nc(=O)n(-c3c(C)ccnc3C(C)C)c3nc(-c4c(O)cccc4F)c(F)cc23)C(C)C1 (stereo not given) + CC(Nc1ncnc2nc[nH]c12)c1cc2cccc(Cl)c2c(=O)n1-c1ccccc1
Key: 37.6

Exercise: Would you kindly repeat that for C#Cc1c(F)ccc2cc(O)cc(-c3ncc4c(N5CC6CCC(C5)N6)nc(OCC56CCCN5CC(F)C6)nc4c3F)c12 (stereo not given) + Cc1nc(NC(=O)N2CCCC2C(N)=O)sc1-c1ccnc(C(C)(C)C(F)(F)F)c1 ?
Key: 15.3

Exercise: Would you kindly repeat that for CC(C)NCC(C(=O)N1CCN(c2ncnc3c2C(C)CC3O)CC1)c1ccc(Cl)cc1 (stereo not given) + Cc1nc(NC(=O)N2CCCC2C(N)=O)sc1-c1ccnc(C(C)(C)C(F)(F)F)c1 ?
Key: 8.98

Exercise: Would you kindly repeat that for Cn1nccc1Nc1nccc(-c2ccn(C(CO)c3ccc(Cl)c(F)c3)c(=O)c2)n1 (stereo not given) + Cc1nc(NC(=O)N2CCCC2C(N)=O)sc1-c1ccnc(C(C)(C)C(F)(F)F)c1 ?
Key: 8.33

Exercise: Would you kindly repeat that for CC(C)NCC(C(=O)N1CCN(c2ncnc3c2C(C)CC3O)CC1)c1ccc(Cl)cc1 (stereo not given) + CC(Nc1ncnc2nc[nH]c12)c1cc2cccc(Cl)c2c(=O)n1-c1ccccc1 ?
Key: 16.5

Exercise: Would you kindly repeat that for CC1(C)CCC(Nc2ncc(C(F)(F)F)c(-c3c[nH]c4c(P(C)(C)=O)c(C#N)ccc34)n2)CN1 (stereo not given) + Cc1nc(NC(=O)N2CCCC2C(N)=O)sc1-c1ccnc(C(C)(C)C(F)(F)F)c1 ?
Key: 1.63

Exercise: Would you kindly repeat that for C=CC(=O)N1CCN(c2nc(=O)n(-c3c(C)ccnc3C(C)C)c3nc(-c4c(O)cccc4F)c(F)cc23)C(C)C1 (stereo not given) + Cc1nc(NC(=O)N2CCCC2C(N)=O)sc1-c1ccnc(C(C)(C)C(F)(F)F)c1 ?
Key: 12.8

Exercise: Would you kindly repeat that for CCCS(=O)(=O)Nc1ccc(F)c(C(=O)c2c[nH]c3ncc(-c4ccc(Cl)cc4)cc23)c1F + CC(Nc1ncnc2nc[nH]c12)c1cc2cccc(Cl)c2c(=O)n1-c1ccccc1 ?
Key: 55.2

Exercise: Would you kindly repeat that for CNC(=O)c1ccc(N2C(=S)N(c3ccc(C#N)c(C(F)(F)F)c3)C(=O)C2(C)C)cc1F + Cc1nc(NC(=O)N2CCCC2C(N)=O)sc1-c1ccnc(C(C)(C)C(F)(F)F)c1 ?
Key: 15.7

Exercise: Would you kindly repeat that for CC1(C)CCC(CN2CCN(c3ccc(C(=O)NS(=O)(=O)c4ccc(NCC5CCOCC5)c([N+](=O)[O-])c4)c(Oc4cnc5[nH]ccc5c4)c3)CC2)=C(c2ccc(Cl)cc2)C1 + Cc1nc(NC(=O)N2CCCC2C(N)=O)sc1-c1ccnc(C(C)(C)C(F)(F)F)c1 ?
Key: 14.7
